From: the supplement of paper PMC10065799

- test target: Fes (UniProt P07332)
- Sequence (P07332 whole entry, looked up): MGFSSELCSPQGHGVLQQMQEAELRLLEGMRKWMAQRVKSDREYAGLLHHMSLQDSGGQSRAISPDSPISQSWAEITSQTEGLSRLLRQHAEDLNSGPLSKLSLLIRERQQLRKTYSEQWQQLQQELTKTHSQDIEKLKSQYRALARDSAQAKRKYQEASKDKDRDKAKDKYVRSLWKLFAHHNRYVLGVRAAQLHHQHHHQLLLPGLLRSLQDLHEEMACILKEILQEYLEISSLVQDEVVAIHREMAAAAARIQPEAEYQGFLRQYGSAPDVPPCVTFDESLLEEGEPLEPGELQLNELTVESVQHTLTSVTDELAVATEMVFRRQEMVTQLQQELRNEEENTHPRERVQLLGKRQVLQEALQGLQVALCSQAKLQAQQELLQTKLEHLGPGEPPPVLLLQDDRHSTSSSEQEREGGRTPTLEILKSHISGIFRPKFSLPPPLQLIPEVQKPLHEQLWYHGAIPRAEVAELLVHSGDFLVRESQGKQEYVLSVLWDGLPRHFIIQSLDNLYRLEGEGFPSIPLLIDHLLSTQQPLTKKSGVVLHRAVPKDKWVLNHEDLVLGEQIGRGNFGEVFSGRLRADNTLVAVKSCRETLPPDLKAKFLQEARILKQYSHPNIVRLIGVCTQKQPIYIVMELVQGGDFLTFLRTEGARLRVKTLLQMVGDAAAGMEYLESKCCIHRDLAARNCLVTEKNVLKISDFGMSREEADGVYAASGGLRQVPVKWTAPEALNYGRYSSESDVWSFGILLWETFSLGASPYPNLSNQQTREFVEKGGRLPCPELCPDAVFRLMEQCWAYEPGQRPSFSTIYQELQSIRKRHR
- assay remarks: phosphorylation enrichment, bacterial display (enrichment ratio); higher = better substrate or ligand; peptides without Tyr show the background;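 also: 11-residue human phosphosite peptides and single-mutation variants displayed on the E. coli surface, counted by deep sequencing, each peptide's frequency after selection divided by its frequency in the unselected input library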;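 also: frequency after pTyr selection over input frequency; kinase dosed for 20-30% of maximal phosphorylation in three min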
Label Met when phosphorylation enrichment is at or above 1; otherwise label Not met.

query sequence	assigned label
ERFSYYGMKAV [SLC15A2_Y61]	Not met
NVVNEYSSELE [FGB_Y172]	Met
ISNATYKEIGL [FLT1_Y199]	Not met
GSSSSYGQHGS [HRNR_Y517]	Not met
IHFPPYTDWNQ [ALDH3B2_Y365_YF]	Met
NGSKAYAYVHF [PABPC5_Y147_G146A]	Met
AAYNKYDQERF [CDC73_Y293_R292K]	Not met
SKGYAYVHFDS [PABPC5_Y149]	Met
CPYNLYAEQLS [HGD_Y40]	Met
KAVLHYKHQNQ [MTOR_Y1804_E1799K]	Not met
RREQDYTNLPS [CSF1R_Y923_R921Q]	Met
ERLLDYTRTVQ [INPP5E_Y439]	Met
TEAGNYKLCFD [TMED1_Y103_D102N]	Met
SVIVPYEPPEV [TP53_Y220_V217I]	Met
VTNHIYTWVDP [DFNB31_Y234]	Met
HLMLQYDAVVN [SLC25A32_Y152_R147H]	Met
NAGAFYVLSTL [FLVCR2_Y325_A326V]	Met
GVIKEYQIRQV [USH2A_Y3623]	Not met
TMKSRYMELFD [BBS2_Y644_YF]	Not met
PSPMPYACCQM [FOXL2_Y215_S217C]	Met
VTQEQYELYCE [CBL_Y368]	Met
IVKAFYVHARA [AIPL1_Y268_R270H_YF]	Met
ILILKYPIEHG [ACTA1_Y71_T68I]	Met
GENTMYAQVFN [LY9_Y603]	Not met
SRIWVYNHYRC [BRCA2_Y2621_W2626C]	Met
HNVPIYEGFGL [ACTA1_Y168_A172G_YF]	Met
RWQQLYDTLNA [EIF3M_Y351_Q346R]	Met
AKKKMYSLKTK [AGXT_Y231_R233L]	Not met
DTVRIYDDDFF [UBA1_Y560_E557V]	Met
QPSPSYDSSGG [TCF12_Y70_R74G]	Not met
SGASGYSATST [CERT1_Y143]	Not met
DMGAQYAAASR [ARID1B_Y483_P488R]	Not met
SSMIDYNPLEK [MYOC_Y479]	Not met
QVKEQYQDVPM [PKP2_Y659_K654Q]	Met
GFPVRYTDVSN [DNMT3B_Y815_H814R]	Not met
DCAAIYGNEPE [AKR1A1_Y50]	Met
SVSNNYIQTLG [CTNND1_Y174]	Not met
RETSLYKACER [ASB2_Y162_P160S]	Not met
FDKPVYQKTTE [LDLR_Y828_N825K]	Not met
SYCYRYRCAAR [SUMF1_Y344]	Not met
PVQAAYPKVVA [HBB_Y131_Q132P]	Not met
QSSALYEDHFL [ASS1_Y83_R86H_YF]	Met
